The reported measurements were obtained from patent US9926281B2.

assay_system: human ADAMTS-5 (Homo sapiens (Human), UniProt Q9UNA0)
Sequence (Q9UNA0 262-930): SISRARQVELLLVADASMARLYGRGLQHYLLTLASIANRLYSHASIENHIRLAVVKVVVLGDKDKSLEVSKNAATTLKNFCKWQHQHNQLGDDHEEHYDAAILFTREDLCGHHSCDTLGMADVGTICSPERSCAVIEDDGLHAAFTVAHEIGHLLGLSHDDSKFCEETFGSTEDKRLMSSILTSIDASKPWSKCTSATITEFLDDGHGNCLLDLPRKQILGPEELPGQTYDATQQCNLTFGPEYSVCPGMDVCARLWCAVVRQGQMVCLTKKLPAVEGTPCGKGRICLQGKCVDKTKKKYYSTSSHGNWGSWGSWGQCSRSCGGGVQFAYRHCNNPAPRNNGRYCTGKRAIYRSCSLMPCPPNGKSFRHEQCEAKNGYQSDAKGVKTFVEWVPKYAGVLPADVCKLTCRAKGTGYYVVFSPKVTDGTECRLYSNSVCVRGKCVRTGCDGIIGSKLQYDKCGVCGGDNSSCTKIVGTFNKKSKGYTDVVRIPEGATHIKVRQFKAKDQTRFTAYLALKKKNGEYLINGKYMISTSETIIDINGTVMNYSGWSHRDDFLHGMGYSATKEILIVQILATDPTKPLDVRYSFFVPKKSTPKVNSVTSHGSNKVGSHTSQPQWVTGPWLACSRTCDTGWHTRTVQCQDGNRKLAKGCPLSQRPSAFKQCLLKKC
condition_description: read-out: hADAMTS-5 potency IC50
pIC50: −log10 of the molar value.
Record Yes whenever pIC50 is at 6 or higher; record No when lower.

The examples below pair each entry with its known result.
compound	qualitative_label
CC1(CCC(=O)N2CCN(c3cncc(Br)c3)CC2)NC(=O)NC1=O (stereo not drawn) [compound 86]	No
CC1(CCC(=O)N2CCN(c3ccc(F)c(F)c3)CC2)NC(=O)NC1=O (stereo not drawn) [compound 37]	Yes
Cc1ccc(Cl)cc1N1CCN(C(=O)CCC2(C(C)C)NC(=O)NC2=O)CC1 (stereo not drawn) [compound 33]	Yes
CC1(CCC(=O)N2CCN(c3ccccn3)CC2)NC(=O)NC1=O (stereo not drawn) [compound 42]	No
CC1CN(C(=O)CCC2(C3CC3)NC(=O)NC2=O)CCN1c1ccccc1 (stereo not drawn) [compound 106]	Yes

Task: Can Cc1ccccc1N1CCN(C(=O)CCC2(CN(C)C)NC(=O)NC2=O)CC1 (stereo not drawn) [compound 119] be said to have pIC50 at or above 6?
Output: No

Task: Hi team, for CC1(CCC(=O)N2CCN(c3cccc(Br)c3)CC2)NC(=O)NC1=O (stereo not drawn) [compound 48] , is the recorded pIC50 at or above 6?
Output: Yes

Task: Record CC1CN(C(=O)CCC2(C3CC3)NC(=O)NC2=O)CCN1c1cccc(Cl)c1 (stereo not drawn) [compound 150] ; criterion: pIC50 no lower than 6. Met?
Output: Yes

Task: Check if pIC50 >= 6 (inclusive). Item: Cc1ccc(C)c(N2CCN(C(=O)CCC3(c4cccnc4)NC(=O)NC3=O)CC2)c1 (stereo not drawn) [compound 88]
Output: Yes

====

assay_system: human ADAMTS-5 (Homo sapiens (Human))
condition_description: read-out: hADAMTS-5 potency IC50
Criterion: IC50 strictly under 100 nM. Met: True. Not met: False.

Below, 7 compounds whose answers are already recorded.
compound	qualitative_label
CC1CN(C(=O)CCC2(c3ccccc3)NC(=O)NC2=O)CCN1c1ccccc1 (centres unmarked) [compound 62]	False
CC1(CCC(=O)N2CCN(c3ccccc3C#N)CC2)NC(=O)NC1=O (centres unmarked) [compound 29]	False
Cc1cccc(N2CCN(C(=O)CCC3(c4ccccc4)NC(=O)NC3=O)CC2)c1C (centres unmarked) [compound 8]	False
Cc1cccc(N2CCN(C(=O)CCC3(C)NC(=O)NC3=O)CC2)c1C (centres unmarked) [compound 11]	False
CC(CC1(C2CC2)NC(=O)NC1=O)C(=O)N1CCN(c2cccc(Cl)c2)CC1 (centres unmarked) [compound 121]	True
O=C1NC(=O)C(CCC(=O)N2CCN(c3ccc4scnc4c3)CC2)(c2ccccc2)N1 (centres unmarked) [compound 26]	False
O=C1NC(=O)C(CCC(=O)N2CCN(c3ccc4ccccc4c3)CC2)(c2ccccc2)N1 (centres unmarked) [compound 9]	False

Task: Could you please tell me whether IC50 recorded for Cc1ccc(Cl)cc1N1CCN(C(=O)CCC2(c3cccnc3)NC(=O)NC2=O)CC1 (centres unmarked) [compound 46] is less than 100 nM?
Output: True

====

Values of pIC50 reported for rnADAMTS-5 (1-564-6H) (Rattus norvegicus, UniProt Q6TY19) appear below.
Kindly note that pIC50 refers to -log10 of the concentration in mol/L and answer with the value alone.

Worked examples, 3 molecules total:
molecule	assay_system	pIC50
CC(C)C1(CCC(=O)N2CCN(c3cc(Cl)cc(Cl)c3)CC2)NC(=O)NC1=O (stereo not shown) [compound 54]	rnADAMTS-5 (1-564-6H) (Rattus norvegicus, UniProt Q6TY19)	7.04
O=C1NC(=O)[C@](CCC(=O)N2CCN(c3cc(Cl)cc(Cl)c3)CC2)(C2CC2)N1 [compound 173]	rnADAMTS-5 (1-564-6H) (Rattus norvegicus, UniProt Q6TY19)	7.68
Cc1ccc(F)cc1N1CCN(C(=O)CCC2(c3cccnc3)NC(=O)NC2=O)CC1 (stereo not shown) [compound 92]	rnADAMTS-5 (1-564-6H) (Rattus norvegicus, UniProt Q6TY19)	7.19

Consider now this further molecule.
Task: Notebook: pull reported pIC50 for rnADAMTS-5 (1-564-6H) (Rattus norvegicus, UniProt Q6TY19), entry C[C@H]1CN(C(=O)CCC2(C3CC3)NC(=O)NC2=O)CCN1c1cc(Cl)cc(Cl)c1 (stereo partly shown) [compound 142]
Output: 7.27
